- procedure_text: Aqueous solubility in PBS (pH 7.4)
- Assay type: physicochemical
- test_context: PBS; pH 7.4; n = 2; read-out: Thermodynamic Solubility @ RT, mean
- Description: Biosciences (Hyderabad, India) or WuXi AppTec (Shanghai, China). Table S1: Representative assay protocol
Reported solubility thermodynamic values for the following compounds.
The figure you give is taken to be in µg/mL; do not add the unit.

// worked examples, solubility thermodynamic included
> print(dat)
                   substance.smiles  units.of.measure  result.value
1  FC(F)(F)c1c(Cl)ccc(-n2ccnn2)c1Cl             µg/mL            68
2      OCc1cn(-c2ccc(Cl)c(Cl)c2)nn1             µg/mL           104

In the following, a different compound is considered.
[Q] Could you share which solubility thermodynamic value was measured for OCc1cn(-c2ccc(Cl)c(C(F)(F)F)c2Cl)nn1 ?
[A] 213

All figures here come from paper PMC9150124.
